read-out: Protein phosphatase 2A (PPP2R4), PTPA (gene 5524); experiment: LTEA_HepaRG_PPP2R4: Life Technologies and Expression Analysis (LTEA) Assay for Protein phosphatase 2A (PPP2R4) using HepaRG (AID 2283522); conditions: mRNA level, 48 h; actives raise or lower the signal
The source made the active and inactive calls. The calls were made as follows: active = hit-call score of the fitted dose curve at least 0.9, where 1 is the maximum; inactive = score below 0.9.
Hi! Could you answer with just one of these? class 1 for active, class 0 for inactive

// below: answered compounds
[[record]]
compound = "CCC(CC)Nc1c([N+](=O)[O-])cc(C)c(C)c1[N+](=O)[O-]"
class_label = "class 0"

[[record]]
compound = "CCCOCC(=Nc1ccc(Cl)cc1C(F)(F)F)n1ccnc1"
class_label = "class 1"

[[record]]
compound = "CCOP(=O)(SC(C)CC)N1CCSC1=O (stereo not drawn)"
class_label = "class 0"


Incoming: Look up the recorded call for `COP(=O)(OC)SCn1c(=O)oc2cc(Cl)cnc21` in this test.
Outgoing: class 0

Incoming: Hi, do you know how `CC1(C(=O)Nc2ccc(O)c(Cl)c2Cl)CCCCC1` came out in this test?
Outgoing: class 0

Incoming: Which outcome was entered for the compound `COc1cc(OC)nc(Sc2cccc(Cl)c2C(=O)O)n1` in this test?
Outgoing: class 0

Incoming: Dear colleague, could you share the recorded outcome for FC(F)C(F)(F)OCC(Cn1cncn1)c1ccc(Cl)cc1Cl (stereo not drawn) when you have a moment?
Outgoing: class 1

Incoming: Outcome logged for `CN(C)C(=O)Nc1cccc(C(F)(F)F)c1` in this assay:
Outgoing: class 0
